study-target: Low molecular weight phosphotyrosine protein phosphatase (Homo sapiens, UniProt P24666);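 note: Dose-response confirmation assay measuring inhibition of LMPTP enzyme activity by fluorescence intensity read-out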
Sequence (P24666 whole entry): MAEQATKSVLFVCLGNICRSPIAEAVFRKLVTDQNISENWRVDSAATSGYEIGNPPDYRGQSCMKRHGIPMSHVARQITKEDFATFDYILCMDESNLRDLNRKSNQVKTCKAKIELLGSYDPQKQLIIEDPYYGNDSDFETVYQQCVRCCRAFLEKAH
Format: functional
details: read-out: IC50_Mean
The source made the active and inactive calls. Cut-off read from the data, not from the text of the source: active = IC50 of 20 µM or less and inactive = more.
Classes used: active, inactive

{"molecule": "CCn1cc(C(=O)O)c(=O)c2cc(F)c(N3CCN(C(=S)NC(=O)c4cccc(C)c4)CC3)cc21", "study-target": "Low molecular weight phosphotyrosine protein phosphatase (Homo sapiens, UniProt P24666)", "group": "active"}
{"molecule": "CCn1cc(C(=O)O)c(=O)c2cc(F)c(N3CCN(C(=S)NC(=O)c4ccc(Br)cc4)CC3)cc21", "study-target": "Low molecular weight phosphotyrosine protein phosphatase (Homo sapiens, UniProt P24666)", "group": "active"}
{"molecule": "COCCNc1nc(NCc2ccc(NC(C)=O)cc2)c2sccc2n1", "study-target": "Low molecular weight phosphotyrosine protein phosphatase (Homo sapiens, UniProt P24666)", "group": "active"}
{"molecule": "C=CC1=C(C(=O)O)N2C(=O)C(NC(=O)Cc3ccccc3)C2SC1 (stereo unspecified)", "study-target": "Low molecular weight phosphotyrosine protein phosphatase (Homo sapiens, UniProt P24666)", "group": "inactive"}
{"molecule": "C=CC1=C(C(=O)O)N2C(=O)[C@@H](NC(=O)/C(=N\\O)c3csc(N)n3)[C@H]2SC1 (stereo in doubt)", "study-target": "Low molecular weight phosphotyrosine protein phosphatase (Homo sapiens, UniProt P24666)", "group": "inactive"}
{"molecule": "O=C(Nc1ccccc1-c1nc2ccccc2s1)C1=COCCO1", "study-target": "Low molecular weight phosphotyrosine protein phosphatase (Homo sapiens, UniProt P24666)", "group": "active"}

###

study-target: Glucose-6-phosphate 1-dehydrogenase (Homo sapiens, UniProt P11413)
Sequence (P11413 whole entry): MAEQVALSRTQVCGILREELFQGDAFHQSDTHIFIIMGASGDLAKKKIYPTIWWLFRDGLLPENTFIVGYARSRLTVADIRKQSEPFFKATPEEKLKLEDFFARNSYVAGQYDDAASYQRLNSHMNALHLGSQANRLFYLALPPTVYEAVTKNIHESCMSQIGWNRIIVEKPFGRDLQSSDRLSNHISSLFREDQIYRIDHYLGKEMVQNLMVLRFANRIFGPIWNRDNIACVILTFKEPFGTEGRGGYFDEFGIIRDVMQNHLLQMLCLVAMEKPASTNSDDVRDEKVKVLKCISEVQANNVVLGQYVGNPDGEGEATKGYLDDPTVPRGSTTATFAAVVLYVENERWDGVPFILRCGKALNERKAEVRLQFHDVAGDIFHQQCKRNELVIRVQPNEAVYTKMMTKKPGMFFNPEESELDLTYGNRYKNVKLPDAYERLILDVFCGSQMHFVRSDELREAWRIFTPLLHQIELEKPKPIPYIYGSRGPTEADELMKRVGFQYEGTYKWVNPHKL
assay-method-text: human G6PD enzyme inhibitors, dose response, selectivity assay for P. falciparum G6PD inhibitor project, biochemical, fluorescence (AID 504792)
Assay type: functional
Active and inactive are the calls of the source. Cut-off read from the data, not from the text of the source: active = IC50 of 20 µM or less and inactive = more.
property-name: IC50

{"compound": "O=C1/C(=C\\c2ccc([N+](=O)[O-])cc2)CS(=O)(=O)C/C1=C/c1ccc([N+](=O)[O-])cc1", "meas-value": "> 80 µM (inactive)"}
{"compound": "Cc1ccc(NS(=O)(=O)c2ccccc2Cl)c2c1CC(C)(C)O2", "meas-value": "> 80 µM (inactive)"}
{"compound": "O=[N+]([O-])c1ccc(-[n+]2ccc3ccccc3c2)c([N+](=O)[O-])c1", "meas-value": "> 80 µM (inactive)"}
{"compound": "CCOC(=O)C1CCCN(C(=O)Cn2sc3nc(C)cc(C)c3c2=O)C1 (centres undefined)", "meas-value": "47.1 µM (inactive)"}
{"compound": "Nc1ccc2c3c(cccc13)-c1ccccc1-2", "meas-value": "> 80 µM (inactive)"}
{"compound": "Clc1ccc2nc(-c3ccc4c(c3)OCO4)cn2c1", "meas-value": "> 80 µM (inactive)"}
{"compound": "COc1ccc(CCn2c(NN)nc3c2c(=O)[nH]c(=O)n3C)cc1", "meas-value": "50.2 µM (inactive)"}
{"compound": "COc1cccc(C(=O)Nc2nnc(C(C)C)s2)c1", "meas-value": "52.7 µM (inactive)"}
{"compound": "COc1ccc(CCn2c(NN=C(C)C)nc3c2c(=O)[nH]c(=O)n3C)cc1", "meas-value": "77.8 µM (inactive)"}
